Taken from PubChem BioAssay (NCI).

// reported growth for each item listed
System: NCI-H322M lung
PROTOCOL: NCI-60 one-dose screen, 48 h (100 = growth as untreated, 0 = no growth, -100 = all killed)
RECORDED CONDITIONS: 10 µM unless noted
About 83,000 compounds went through this panel and 20% of them were active in at least one assay; those are over-represented in the sample as a whole.
MEASURED PROPERTY: growth (%)

{"COMPOUND": "O=C(Nc1ccc(N=Cc2c(O)[nH]c3ccccc23)cc1)Nc1nccs1", "NUMERIC VALUE": 52.8}
{"COMPOUND": "Nc1nc(Nc2ccccc2SSc2ccccc2Nc2nc(N)nc(-c3cccc(Br)c3)n2)nc(-c2cccc(Br)c2)n1", "NUMERIC VALUE": 94.8}
{"COMPOUND": "O=C(NCc1ncc[nH]1)c1ccc(-c2nc3ccc4[nH]ncc4c3c3c2CCCC3)cc1", "NUMERIC VALUE": 21.4}
{"COMPOUND": "CC(C)(C)n1cc(-c2ccnc(NCCCNS(=O)(=O)c3cccc(F)c3)n2)c(-c2ccc(Cl)c(O)c2)n1", "NUMERIC VALUE": 90.9}
{"COMPOUND": "CC[C@H](CO)Nc1ccc2ncc(C#Cc3cncc(C(=O)Nc4ccc(CN5CCN(C)CC5)c(C(F)(F)F)c4)c3)n2n1", "NUMERIC VALUE": -16.6}
{"COMPOUND": "NC(N)=Nc1ccc(Oc2cccc(NC(N)=Nc3ccc(Cl)c(C(F)(F)F)c3)c2)cn1", "NUMERIC VALUE": 37.9}
{"COMPOUND": "N/C(=N\\C(N)=N\\c1nc2ccccc2s1)c1ccncc1Cl", "NUMERIC VALUE": 80.6}
{"COMPOUND": "O=C1CCCc2nc(Nc3ccc(S(=O)(=O)Nc4ccc([N+](=O)[O-])cc4)cc3)ncc21", "NUMERIC VALUE": 106}
{"COMPOUND": "CCN1CCN(Cc2ccc(C(=O)Nc3ccc(C)c(Oc4ccc(-c5[nH]nc6ncnc(N)c56)cc4)c3)cc2C(F)(F)F)CC1", "NUMERIC VALUE": 99}
{"COMPOUND": "O=S(=O)(Nc1ccc(I)cc1Cl)c1ccc(-c2cnc(C3CC3)o2)cc1", "NUMERIC VALUE": 64.8}
{"COMPOUND": "COC(=O)c1[nH]nc2c1C1(C(=O)c3cccc4cccc1c34)C(C#N)=C(N)O2 (stereo not given)", "NUMERIC VALUE": 94.1}
{"COMPOUND": "COc1ccc(C2c3sc4c(C)cccc4c3Oc3nc(CC(=O)Nc4ccccc4)[nH]c(=O)c32)cc1 (stereo not given)", "NUMERIC VALUE": 95.4}
{"COMPOUND": "NC(N)=Nc1ccc(Oc2cccc(Oc3ccc(Cl)c(C(F)(F)F)c3)c2)cn1", "NUMERIC VALUE": -6.46}
{"COMPOUND": "COC(=O)C[Se]C(=O)Cc1c(C)n(C(=O)c2ccc(Cl)cc2)c2ccc(OC)cc12", "NUMERIC VALUE": 44.7}
{"COMPOUND": "C=C(C=O)[C@@H]1CC[C@]2(C)[C@H](CC=C3[C@H]4[C@@H](C)[C@H](C)CC[C@]4(C(=O)OC)CC[C@]32C)[C@@]1(C)CCC#N", "NUMERIC VALUE": 32.9}
{"COMPOUND": "Cc1occc1-c1nc2s/c(=C/c3ccc(-c4cc(C(F)(F)F)ccc4Cl)o3)c(=O)n2n1", "NUMERIC VALUE": 101}
{"COMPOUND": "COc1cc2nc(Cl)nc(Nc3cccc(C4=Nc5c(N)nc(N)nc5NC(c5ccc6c(c5)OCO6)C4)c3)c2cc1OC (stereo not given)", "NUMERIC VALUE": 83.4}
{"COMPOUND": "COc1cc(OC)c(S(N)(=O)=O)cc1C(=O)/C=C/c1ccc(Cl)cc1", "NUMERIC VALUE": 16.3}
{"COMPOUND": "Cc1cccc2c3c(sc12)C(c1ccc(Cl)cc1)c1c(nc(CC(=O)Nc2ccccc2)[nH]c1=O)O3 (stereo not given)", "NUMERIC VALUE": 76.5}
{"COMPOUND": "CCN(CC)CCn1c2ccc(O)cc2c2sc3cc(OC)ccc3c(=O)c21", "NUMERIC VALUE": 26.2}
{"COMPOUND": "NS(=O)(=O)c1ccc(Nc2nc(N/N=C/c3c[nH]c4ccccc34)nc(Nc3ccccc3)n2)cc1", "NUMERIC VALUE": 54.4}
{"COMPOUND": "CN1CCN(Cc2ccc(NC(=O)c3cncc(C#Cc4cnc5ccc(OCC(C)(C)O)nn45)c3)cc2C(F)(F)F)CC1", "NUMERIC VALUE": -22.5}
{"COMPOUND": "C#CCOc1ccc(/C=N\\Nc2nc(-c3ccc(C)cc3)cs2)cc1OC", "NUMERIC VALUE": 92.2}
{"COMPOUND": "COc1cccc2c1CN(C(=O)c1ccc(O)c(C(=O)N3Cc4ccc(OCCC[P+](c5ccccc5)(c5ccccc5)c5ccccc5)cc4C3)c1)C2", "NUMERIC VALUE": 99.1}
{"COMPOUND": "Cc1ccc2c(c1)C(=O)/C(=C/c1cccc(F)c1)S2", "NUMERIC VALUE": 98.2}
